- assay_system: T1, LNX2 PDZ2 (human, UniProt Q8N448 334-426)
- T1 construct: second PDZ domain of human LNX2, residues 334-426, numbering of the full-length human protein; […]; Labelled on amines with RED-NHS dye for MST; also called LNX2-2; not shown: His tag, N-terminal, cleaved
- T1 sequence (looked up): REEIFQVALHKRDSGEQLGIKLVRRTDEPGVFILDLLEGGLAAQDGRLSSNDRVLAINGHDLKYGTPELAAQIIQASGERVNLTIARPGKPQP
- measurement_notes: MST; […]; PBS tween 20 0.05%; room temperature; […]; duplicate
- test_context: both partners purified
measured_metric: Kd (µM)

binder="NLNSSRVPDLLV (also called SARS-CoV-2 WT; SARS-CoV-2 peptide E) [C-terminal SARS-CoV-2-E PBM peptide]" recorded_number=289
